Data origin: patent US20250145695A1

Molecular target: T1, soluble TDP-43 (human, UniProt Q13148 1-414)
T1 construct: also called soluble full-length TDP-43; FL TDP-43
T1 sequence (Q13148 whole entry): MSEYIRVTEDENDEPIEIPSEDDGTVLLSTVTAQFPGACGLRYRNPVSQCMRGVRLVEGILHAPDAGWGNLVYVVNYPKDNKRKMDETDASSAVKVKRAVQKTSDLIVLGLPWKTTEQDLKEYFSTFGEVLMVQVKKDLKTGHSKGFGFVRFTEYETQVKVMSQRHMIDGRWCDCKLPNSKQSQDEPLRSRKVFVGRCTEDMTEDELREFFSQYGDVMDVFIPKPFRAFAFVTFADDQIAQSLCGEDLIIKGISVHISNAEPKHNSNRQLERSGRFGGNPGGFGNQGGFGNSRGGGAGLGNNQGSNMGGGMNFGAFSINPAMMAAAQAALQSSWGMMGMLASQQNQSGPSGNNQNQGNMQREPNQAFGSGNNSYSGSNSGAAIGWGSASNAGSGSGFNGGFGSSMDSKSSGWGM
Test: SPR Biacore 8K, soluble TDP-43 immobilized on CM5, mAb injected, single-cycle kinetics
The threshold is inclusive: kon of exactly 30000 M⁻¹ s⁻¹ counts as Condition met; values below receive Condition not met.

These solved cases illustrate the format of a correct answer.
{"columns": ["binder", "assigned_class"],
 "data": [
  ["hACI-7069-633B12-Ab1_H27L23 (antibody, V domains shown) VH: EVQLVQSGAEVKKPGATVKISCKVSGFTFTEYSMHWVQQAPGKGLEWMGGINPNNGGTSYNQKFKGRVTITVDTSTDTAYMELSSLRSEDTAVYYCARESWGQGTTVTVSS VL: DVVMTQSPLSLPVTPGEPASISCKSSQSLLHSDGKTYLNWLLQKPGQSPQRLIYLVSKLDSRVPDRFSGSGSGTDFTLKISRVEAEDVGVYYCWQGTHFPHTFGQGTKLEIK", "Condition not met"],
  ["hACI-7069-633B12-Ab1_H28L24 (antibody, V domains shown) VH: EVQLVQSGAEVKKPGATVKISCKVSGFTFTEYSMHWVQQAPGKGLEWMGGINPNNGGTSYNQKFKGRVTITADTSTDTAYMELSSLRSEDTAVYYCARESWGQGTTVTVSS VL: DIVMTQSPLSLPVTPGEPASISCKSSQSLLHSDGKTYLNWLLQKPGQSPQRLIYLVSKLDSRVPDRFSGSGSGTDFTLKISRVEAEDVGVYYCWQGTHFPHTFGQGTKLEIK", "Condition met"],
  ["hACI-7069-633B12-Ab1_H33L26 (antibody, V domains shown) VH: EVQLVQSGAEVKKPGATVKISCKVSGFTFTEYSMHWVQQAPGKGLEWMGGINPNNGGTSYNQKFQGRVTITADTSTDTAYMELSSLRSEDTAVYYCARESWGQGTTVTVSS VL: DIVMTQSPLSLPVTPGEPASISCKSSQSLLHSDAKTYLNWLLQKPGQSPQRLIYLVSKLDSRVPDRFSGSGSGTDFTLKISRVEAEDVGVYYCFQGTHFPHTFGQGTKLEIK", "Condition met"],
  ["hACI-7069-633B12-Ab1_H32L27 (antibody, V domains shown) VH: EVQLVQSGAEVKKPGATVKISCKVSGFTFTEYSMHWVQQAPGKGLEWMGGINPQNAGTSYNQKFQGRVTITADTSTDTAYMELSSLRSEDTAVYYCARESWGQGTTVTVSS VL: DIVMTQSPLSLPVTPGEPASISCKSSQSLLHSDGKTYLNWLLQKPGQSPQRLIYLVSKLDSRVPDRFSGSGSGTDFTLKISRVEAEDVGVYYCFQGTHFPHTFGQGTKLEIK", "Condition met"],
  ["hACI-7069-633B12-Ab1_H32L26 (antibody, V domains shown) VH: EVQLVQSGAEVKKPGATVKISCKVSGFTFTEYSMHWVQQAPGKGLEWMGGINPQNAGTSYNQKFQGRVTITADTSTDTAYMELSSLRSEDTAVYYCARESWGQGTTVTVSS VL: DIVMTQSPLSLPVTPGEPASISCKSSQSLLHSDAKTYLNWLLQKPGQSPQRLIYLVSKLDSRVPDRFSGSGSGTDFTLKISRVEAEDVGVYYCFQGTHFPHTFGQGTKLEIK", "Condition met"],
  ["hACI-7069-633B12-Ab1_H28L23 (antibody, V domains shown) VH: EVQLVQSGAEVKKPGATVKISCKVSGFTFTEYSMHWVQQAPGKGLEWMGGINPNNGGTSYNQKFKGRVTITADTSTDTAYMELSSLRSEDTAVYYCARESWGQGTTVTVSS VL: DVVMTQSPLSLPVTPGEPASISCKSSQSLLHSDGKTYLNWLLQKPGQSPQRLIYLVSKLDSRVPDRFSGSGSGTDFTLKISRVEAEDVGVYYCWQGTHFPHTFGQGTKLEIK", "Condition met"],
  ["hACI-7069-633B12-Ab1_H32L24 (antibody, V domains shown) VH: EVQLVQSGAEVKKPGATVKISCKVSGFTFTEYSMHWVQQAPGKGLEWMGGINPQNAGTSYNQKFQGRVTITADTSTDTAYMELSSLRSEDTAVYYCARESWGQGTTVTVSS VL: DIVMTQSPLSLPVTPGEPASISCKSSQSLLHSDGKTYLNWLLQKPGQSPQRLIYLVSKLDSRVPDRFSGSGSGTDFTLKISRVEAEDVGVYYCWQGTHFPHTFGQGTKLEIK", "Condition not met"],
  ["hACI-7069-633B12-Ab1_H33L27 (antibody, V domains shown) VH: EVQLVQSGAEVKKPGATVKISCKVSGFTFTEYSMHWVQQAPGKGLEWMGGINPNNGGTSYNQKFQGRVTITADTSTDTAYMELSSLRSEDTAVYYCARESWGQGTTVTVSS VL: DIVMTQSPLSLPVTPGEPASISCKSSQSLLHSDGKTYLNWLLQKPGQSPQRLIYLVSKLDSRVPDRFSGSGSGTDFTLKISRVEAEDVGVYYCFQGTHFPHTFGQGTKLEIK", "Condition met"]
]}

Ask: Say whether hACI-7069-633B12-Ab1_H28L22 (antibody, V domains shown) VH: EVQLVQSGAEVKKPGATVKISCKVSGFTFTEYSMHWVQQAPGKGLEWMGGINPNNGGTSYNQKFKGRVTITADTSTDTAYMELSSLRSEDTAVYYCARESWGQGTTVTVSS VL: DIVMTQSPLSLPVTPGEPASISCKSSQSLLHSDGKTYLNWLLQKPGQSPKRLIYLVSKLDSRVPDRFSGSGSGTDFTLKISRVEAEDVGVYYCWQGTHFPHTFGQGTKLEIK shows kon of 30000 M⁻¹ s⁻¹ or more.
Reply: Condition not met
